Tested on: HLA-B*15:01
Protocol: IEDB peptide-MHC binding, purified MHC/competitive/fluorescence; filed as Kd, often an IC50 or EC50 that approximates it; bounds were set here for any values at or beyond the usual limits of such assays
Protocol conditions: source organism: Escherichia coli E22
pKd: −log10 of the molar value.
Recorded metric: pKd

Problem: Lookup: pKd / HLA-B*15:01 / YQTYVSPGA
Solution: ≤ 4.70

###

Tested on: HLA-B*15:01
Protocol: IEDB peptide-MHC binding, purified MHC/competitive/fluorescence; filed as Kd, often an IC50 or EC50 that approximates it; bounds were set here for any values at or beyond the usual limits of such assays
Protocol conditions: source organism: Hantavirus HPR/02-73
Recorded metric: Kd

Problem: What measured Kd goes with WKAIGAYIL ?
Solution: ≥ 20 µM
